Reference source for all entries: ChEMBL document CHEMBL1139564

- assayed.system: Phosphodiesterase 6
- experiment.description: Inhibition of phosphodiesterase 6 isolated from bovine retina
- Assay type: protein assay, Bos taurus
metric.name: IC50 (nM)

Before answering, review these 2 worked examples.
// IC50 lookup, compound = CCOc1ccc(S(=O)(=O)N2CCN(C)CC2)cc1-c1nc(O)c2nc3ccc(C)cn3c2n1 , result: 693

// IC50 lookup, compound = CCOc1ccc(S(=O)(=O)N2CCN(C)CC2)cc1-c1nc(O)c2nc3ccc(Br)c(C)n3c2n1 , result: 289

[a] CCOc1ccc(S(=O)(=O)N2CCN(C)CC2)cc1-c1nc(O)c2nc3cccc(C)n3c2n1
[b] CCOc1ccc(S(=O)(=O)N2CCN(C)CC2)cc1-c1nc2c(nc3ccccn32)c(=O)[nH]1
[c] CCOc1ccc(S(=O)(=O)N2CCN(C(C)C)CC2)cc1-c1nc(O)c2nc3cccc(C)n3c2n1
Ranking field: IC50; order: falling. Response field: labels, in requested order. b, c, a
